- ASSAY_METHOD_TEXT: Blood circulating concentrations (preliminary PK)
- Assay type: in vivo, mouse
- CONDITION_SET: mouse, plasma, sc; ICR mice, single S.C 12.5 mg/kg, LC-MS, mean ± SD; read-out: Maximal plasma concentration
OBSERVABLE: Cmax (µM)
// return numeric value only (unit: µM, not printed)

Cmax recorded for this molecule, CCCCC=CCCCCCCCC(=O)N[C@@H](CCCN)C(=O)N[C@@H](CCCN)C(=O)NCCCCCCCCCC(=O)N[C@@H](CCCN)C(N)=O [C14(ω5)OOc10O] , is 8.7

* * *

Documented MIC, LB medium across a set of compounds
- Test system: 12 GNB strains
- Format: cell-based
- CONDITION_SET: OD measurements, mean of 12 GNB strains

Solved entries:
* CCCCC=CCCCCCCCC(=O)N[C@@H](CCCN)C(=O)N[C@@H](CCCN)C(=O)NCCCCCCCCCC(=O)N[C@@H](CCCN)C(N)=O [C14(ω5)OOc10O] | > 50 µM
* CCCCCCCCCCCCCC(=O)N[C@@H](CCCN)C(=O)N[C@@H](CCCN)C(=O)NCCCCCCCCCC(=O)N[C@@H](CCCN)C(N)=O [C14OOc10O] | 12.5 to 25 µM

With those in mind, consider the next compound.
MIC, LB medium measured on CCCCC=CCCCCCCCC(=O)N[C@@H](CCCN)C(=O)N[C@@H](CCCN)C(=O)NCCCCCCCC(=O)N[C@@H](CCCN)C(N)=O = >50 µM

* * *

- ASSAY_METHOD_TEXT: Hydrophobicity by reversed phase HPLC elution
- Type: physicochemical
- CONDITION_SET: % acetonitrile required for elution in reversed phase HPLC, C18 column; rounded to nearest whole number
Where a SMILES comes first, the peptide text is derived from it. [ ]: non-standard residue; d: D form. The star is where a group is joined. Myristoyl = CCCCCCCCCCCCCC(=O)*; 12Ado = NCCCCCCCCCCCC(=O)O; Orn = NCCC[C@H](N)C(=O)O
# cutoff 50% applies to H, hydrophobicity; >= gives 1 (yes), < gives 0 (no)

- CCCCC=CCCCCCCCC(=O)N[C@@H](CCCN)C(=O)N[C@@H](CCCN)C(=O)NCCCCCCCC(=O)N[C@@H](CCCN)C(N)=O [C14(ω5)OOc8O]: 0 (no)
- NCCC[C@H](NC(=O)CCCCCCCCCCCNC(=O)[C@H](CCCN)NC(=O)[C@@H](N)CCCN)C(N)=O [OOc12O] (H-[Orn][Orn][12Ado][Orn]-NH2): 0 (no)
- CCCCCCCCCCCCCC(=O)N[C@@H](CCCN)C(=O)N[C@@H](CCCN)C(=O)NCCCCCCCCCCCC(=O)N[C@@H](CCCN)C(N)=O [C14OOc12O] (Myristoyl-[Orn][Orn][12Ado][Orn]-NH2): 1 (yes)
- CCCCC=CCCCCCCCC(=O)N[C@@H](CCCN)C(=O)N[C@@H](CCCN)C(=O)NCCCCCC(=O)N[C@@H](CCCN)C(N)=O [C14(ω5)OOc6O]: 0 (no)

Would you kindly look at the next entry?
In: Reported H, hydrophobicity reaches at least 50% for CCCCCCCCCCCCCC(=O)N[C@@H](CCCN)C(=O)N[C@@H](CCCN)C(=O)NCCCCCCCCCC(=O)N[C@@H](CCCN)C(N)=O [C14OOc10O] ?
Out: 1 (yes)

Source listed as paper PMC8621570.
